Test system: SARS-CoV-2 replicon
Assay: microbe, parasite or virus in culture
Assay type: cell-based
Details: Severe acute respiratory syndrome coronavirus 2, Huh-7
readout_type: EC50

structure_as_smiles: O=C(C#CCNC(=O)C(=O)NCc1ccccc1C(=O)NC1(c2cccc3ccccc23)CC1)NC1CC1
readout_type: EC50
measurement: < 1000 nM
//
structure_as_smiles: N#CCNC(=O)C(=O)NCc1ccccc1C(=O)NC1(c2cc(-c3cnn(C(F)F)c3)cc3ccccc23)CC1
readout_type: EC50
measurement: < 1000 nM
//
structure_as_smiles: CNN(C)C(=O)/C=C/CNC(=O)C(=O)NCc1ccccc1C(=O)NC1(c2cccc3ccccc23)CC1
readout_type: EC50
measurement: 1000 to 10000 nM
//
structure_as_smiles: C#CCNC(=O)C(=O)NCc1ccccc1C(=O)NC1(c2cc(F)cc(-c3cnn(C4CC4)c3)c2F)CC1
readout_type: EC50
measurement: < 1000 nM
//
structure_as_smiles: C[C@@H](C#Cc1ccc(C#N)cc1F)NC(=O)C(=O)NCc1ccccc1C(=O)NC1(c2cc(F)cc(-c3cnn(C4CC4)c3)c2)CC1
readout_type: EC50
measurement: < 1000 nM
//
structure_as_smiles: O=C(NCC#Cc1ccc(F)cn1)C(=O)NCc1ccccc1C(=O)NC1(c2ccc3ccccc3c2)CC1
readout_type: EC50
measurement: < 1000 nM
//
structure_as_smiles: COc1cccnc1C#C[C@H](C)NC(=O)C(=O)NCc1ccccc1C(=O)NC1(c2cc(F)cc(-c3cnn(C4CC4)c3)c2)CC1
readout_type: EC50
measurement: < 1000 nM
//
structure_as_smiles: COC(=O)/C=C/CNC(=O)C(=O)NCc1c(F)cc(F)cc1C(=O)N[C@H](C)c1cccc2ccccc12
readout_type: EC50
measurement: 1000 to 10000 nM

Bench note, SARS-CoV-2 replicon: Cn1cc2cc(C3(NC(=O)c4ccccc4CNC(=O)C(=O)NCC#Cc4ccc(C#N)cc4F)CC3)ccc2n1 , EC50 reads < 1000 nM

Bench note, SARS-CoV-2 replicon: C[C@@H](C#Cc1nccs1)NC(=O)C(=O)NCc1ccccc1C(=O)NC1(c2ccnc3c2ccn3C2CC2)CC1 , EC50 reads < 1000 nM

Bench note, SARS-CoV-2 replicon: COc1cccnc1C#CCNC(=O)C(=O)NCc1ccccc1C(=O)NC1(c2ccc3nn(C)cc3c2)CC1 , EC50 reads < 1000 nM

Bench note, SARS-CoV-2 replicon: N#CCNC(=O)C(=O)NCc1ccccc1C(=O)NC1(c2cc(F)cc(Br)c2)CC1 , EC50 reads > 10000 nM

Bench note, SARS-CoV-2 replicon: CC(C)Oc1cccnc1C#CCNC(=O)C(=O)NCc1ccccc1C(=O)NC1(c2cc(F)cc(-c3cnn(C4CC4)c3)c2)CC1 , EC50 reads < 1000 nM

Bench note, SARS-CoV-2 replicon: CS(=O)(=O)/C=C/CNC(=O)C(=O)NCc1ccccc1C(=O)NC1(c2cccc3ccccc23)CC1 , EC50 reads < 1000 nM

Bench note, SARS-CoV-2 replicon: C#CCNC(=O)C(=O)NCc1ccccc1C(=O)NC1(c2cc(F)cc(-c3cccs3)c2)CC1 , EC50 reads < 1000 nM

###

Biological target: SARS-CoV-2 Papain-like (PLpro) protease (Severe acute respiratory syndrome coronavirus 2, UniProt P0DTD1)
Assay: SARS-CoV-2 Papain-like (PLpro) protease biochemical enzyme inhibition assay (ubiquitin-fluorophore substrate, Ub-R110)
Conditions: Ub-R110 substrate; run in duplicate; read-out: PLpro IC50
pIC50: −log10 of the molar value.
readout_type: pIC50

Look over these answered cases.
compound: N#CN1CC[C@H](C(=O)NCc2ccccc2C(=O)NC2(c3cc(-c4cnn(C5CC5)c4)cc4ncccc34)CC2)C1
measurement: > 7.00
--
compound: O=C(NCC#Cc1cncnc1)C(=O)NCc1ccccc1C(=O)NC1(c2cccc3ccccc23)CC1
measurement: > 7.00
--
compound: O=C(NC/C=C/C(=O)N1CC[C@H](O)C1)C(=O)NCc1ccccc1C(=O)NC1(c2cccc3ccccc23)CC1
measurement: 6.00 to 7.00
--
compound: COC(=O)/C=C/CNC(=O)C(=O)NCC1C[C@H]1C(=O)N[C@H](C)c1cccc2ccccc12 (some centres unmarked)
measurement: 5.00 to 6.00
--
compound: N#CCNC(=O)C(=O)NCc1ccccc1C(=O)NC1(c2ccc3sc4ccccc4c3c2)CC1
measurement: > 7.00
--
compound: O=C(NCC#Cc1cc(F)cc(F)c1)C(=O)NCc1ccccc1C(=O)NC1(c2ccc3ccccc3c2)CC1
measurement: < 5.00

// below: pIC50 requested for another compound
What the record says about CC1(CNC(=O)C(=O)NCc2ccccc2C(=O)NC2(c3cccc4ccccc34)CC2)CN(C#N)C1 : pIC50 is > 7.00
